The origin of these recorded values is PubChem BioAssay (NCI).

Catalogue of compounds with associated growth
Test system: NCI-H460 lung
Assay: NCI-60 one-dose screen, 48 h (100 = growth as untreated, 0 = no growth, -100 = all killed)
Conditions: 10 µM unless noted
About 83,000 compounds went through this panel and 20% of them were active in at least one assay; those are over-represented in the sample as a whole.
Give the number; % is assumed, so skip it.

Please review the entries below; each comes with its answer.
N#C/C(=C\c1ccc(C(F)(F)F)cc1)c1cc2ccccc2[nH]1 : 97.7
CCCCN1C=CCN(CCCC)C1 : 50.1

Query :: Recall the recorded growth for `N#C/C(=C\c1c(-c2ccccc2)[nH]c2ccccc12)C(=O)c1ccc(Cl)cc1` with NCI-H460 lung and state it.
Result :: 18.2

Query :: Another compound to look at: `CC(=O)O[C@H]1Cc2c([nH]c3ccccc23)[C@@H](c2ccc(Cl)cc2)N1C(=O)CCNC(C)(C)C`
Result :: 37.5

Query :: Another compound to look at: `COc1ccc(C/C(=C(\C)c2ccc(OCCN3CCCC3)cc2)c2ccc(OCCN3CCCC3)cc2)cc1`
Result :: 6.71

---

Catalogue of compounds with associated growth
Test system: UACC-62 melanoma
Experiment: NCI-60 one-dose screen, 48 h (100 = growth as untreated, 0 = no growth, -100 = all killed)
Conditions: 10 µM unless noted
The panel holds about 83,000 compounds, 20% with a hit somewhere; the sample as a whole holds those more often.
Give the number; % is assumed, so skip it.

Please review the entries below; each comes with its answer.
CC(C)c1ccc(Nc2ccc3c(OCCCN4CCN(C)CC4)cccc3n2)cc1 : 1.02
O=C1/C=C/[C@@H](O)[C@@H]2C[C@@H](O)C[C@H]2/C=C/CCC[C@H](CCc2ccc3ncccc3c2)O1 : 4.66
CC1(C)NCCC[C@]2(C)[C@H]3CC(=O)[C@H]4[C@@H]5C[C@](C)(CO)CC[C@]5(C)CC[C@@]4(C)[C@]3(C)CC[C@@H]12 : 98
CC(C)=CCC[C@](C)(O)[C@H]1CC[C@]2(C)[C@@H]1CC[C@@H]1[C@@]3(C)C/C(=C/c4ccccc4)C(=O)C(C)(C)[C@@H]3CC[C@]12C : 88.2
c1ccc(-c2cn3c(ccc4ccccc43)n2)cc1 : 43.5
CCc1ccc(-c2cn3ccnc3c(-c3ccc4ncn(Cc5ccccc5)c4c3)n2)cc1 : 75.1

Query :: Suppose we examine the compound NC(=NCc1ccccc1)C(N=Nc1ccccc1)C(=O)NCc1ccccc1 (stereo unspecified) ; what growth value has been reported?
Result :: 76.6

Query :: Another compound to look at: `Oc1c(Cl)cc(Cl)c(Cl)c1CNCCNCc1c(O)c(Cl)cc(Cl)c1Cl`
Result :: -13.3

Query :: Another compound to look at: O=C(C1CCC1)N1N=C(c2ccc(-n3ccc(C(F)(F)F)n3)cc2)CC1c1ccc[nH]1 (stereo unspecified)
Result :: 90.5

---

Tested on: SF-268 CNS
Test: NCI-60 one-dose screen, 48 h (100 = growth as untreated, 0 = no growth, -100 = all killed)
Conditions: 10 µM unless noted
This is part of a sample that, as a whole, favours compounds with a hit. Of some 83,000 tested, about 20% had one in any assay. Calls of active or inactive are those of the source. Rule for the calls: active = growth percent below 10; inactive = the rest.
MEASURED_METRIC: growth

O=C(Nc1ncc(Cc2cc(Cl)ccc2Cl)s1)c1cccs1 : 74.9% (inactive)
Fc1ccc(-c2cn3c(nc4ccccc43)c(-c3ccccc3)n2)cc1 : 90.1% (inactive)
COc1ccc(-c2cnc3c(-c4cccc5ncccc45)cnn3c2)cc1 : 19% (inactive)
Cn1cc(-c2csc(-c3c[nH]c4ccccc34)n2)c2ccnc(Cl)c21 : 102% (inactive)
CCC(CC)NCC(C)(C)O : 109% (inactive)

Query :: Suppose we examine the molecule `CN(C)c1ccc(Nc2c3ccccc3nc3cc(NC(=O)CCN4CCCC4)ccc23)cc1` ; what growth value has been reported?
Result :: -6.93% (active)

Query :: Another molecule to look at: `Cc1nn(-c2ccccc2)c(Oc2c(Cl)cccc2Cl)c1/C=N/N=c1\sc2ccccc2n1C`
Result :: 52.2% (inactive)

Query :: Another molecule to look at: `CCNc1nc2cc(Nc3ccnc4cc(Cl)ccc34)ccc2o1`
Result :: 81.1% (inactive)

Query :: Another molecule to look at: `c1ccc(Cn2cnc3ccc(-c4nc(-c5ccc6c(c5)ncn6C5CCCCC5)cn5ccnc45)cc32)cc1`
Result :: -0.106% (active)

Query :: Another molecule to look at: `C=C1C(=O)O[C@H]2[C@H]1CC/C(CNC(=O)/C=C/c1cccc(OC)c1)=C\CC[C@@]1(C)O[C@@H]21`
Result :: 48.4% (inactive)
